Experiment: Biodisposition of JV-DE1 and JV-MD2 delivered via NIODP (periorbital skin) in non-human primates
Type: in vivo, cynomolgus monkeys
Conditions: cynomolgus, cynomolgus monkey, vitreous humor, topical; JV-DE1; monkey; NIODP OD; 159.3 μg/eye; 24 h; read-out: Drug in OD Tissues, Vitreous humor
recorded_metric: concentration at 24 h (ng/mL)

compound="CC(C)Oc1ccc(Cc2ccc(NC3=NCCN3)cc2)cc1 [JV-DE1]" recorded_metric="concentration at 24 h" obs_value=19

----------
Assay: Biodisposition of JV-DE1 eye drops in New Zealand rabbits (LC-MS/MS of plasma and ocular tissues)
Format: in vivo
Details: New Zealand, conjunctiva, other: eye drop applied to the eye; rabbit; single eye drop 120 μg/eye OD; 6 h; read-out: Drug in OD Tissues, Conjunctiva
recorded_metric: concentration at 6 h (ng/g)

record_smiles=CC(C)Oc1ccc(Cc2ccc(NC3=NCCN3)cc2)cc1 unit_text=ng/g obs_value=566

Origin of the recorded values: paper PMC10535219
